assay: Caco-2 assay (permeability across cell monolayers); assay type: in vitro ADME; conditions: human, Caco-2, pH 7.4; Inhibitor (–), 1 μM, 2 h incubation; read-out: Pe (basolateral-to-apical)
Non-standard residues stand in square brackets, D forms with d. Residues, ends and D or L forms follow the SMILES beside them. Hica(2S) = CC(C)C[C@H](O)C(=O)O
quantity kind: Papp B→A at 2 h, 1 μM

Value lookup for Papp B→A at 2 h, 1 μM; key = CC(C)C[C@@H]1NC(=O)[C@@H](CC(C)C)NC(=O)[C@H](CC(C)C)OC(=O)[C@H](Cc2ccc(O)cc2)NC(=O)[C@H]2CCCN2C(=O)[C@H](CC(C)C)NC1=O [DP2] (cyclo(LL[dP]Y[Hica(2S)][dL]))
40.8 ×10⁻⁶ cm/s
